Entries and their measured composite z-score follow.
assay: binders from COS7 lysate, DM2A8 probe, primary screen, torsin A project, cell lysate, small-molecule microarray, fluorescence 635/667 (AID 1065); settings: higher = more signal, COS7 lysate expressing mutant human TOR1A
experimentalEndpoint: composite z-score

INSERT INTO results (molecule, val) VALUES
  ('CCCCNC(=O)c1ccc(C#CC(C)(C)C)c(OC(C)=O)c1', 0.212),
  ('COc1ccc([Si](C)(C)[C@@H]2[C@@H](CCO)O[C@]3(C(=O)N(Cc4ccccc4)c4ccc(N5CCOC5=O)cc43)[C@H]2C)cc1', 0.682),
  ('CC(CO)N1C(=O)[C@]2(C)C3C(=O)OCCC/C=C\[C@H]3OC23C=CCN(c2ccc(Cl)cc2)C(=O)[C@@H]13 (some centres not stated)', -0.258),
  ('O[C@@H](Cc1ccccc1)[C@@H](/C=C/C1CC1)N(CC#Cc1ccccc1)Cc1ccccc1Br', -0.614),
  ('COc1ccc([Si](C)(C)[C@H]2[C@H](CC(=O)N3CCC[C@H]3CO)O[C@@]3(C(=O)N(Cc4ccc(N5CCOC5=O)cc4)c4ccccc43)[C@@H]2C)cc1', 0.582),
  ('CC(C)[Si]1(C(C)C)OCc2cc(-c3ccc(-c4ccc(Cl)c(Cl)c4)o3)nc(-c3ccccc3)c21', -0.464),
  ('C=CCOC(=O)[C@@]1(Cc2ccccc2)C[C@H]2CO[C@H](c3ccc(OC)cc3)N2C1=O', 0.366),
  ('O=C1[C@H]2C=C(I)[C@H](C[C@@H]2OCCOCCO)[C@@]12CO2', 0.97),
  ('Cc1ccc(N2C(=O)c3ccccc3[C@@H](C(=O)NCCCN(C)C)[C@@H]2c2ccc(CO)cc2)nc1', -0.538),
  ('COC(=O)[C@@]1(Cc2ccc(OC)cc2)[C@H]2c3cc(C(=O)N(C)C)n(Cc4ccc(C)o4)c3C[C@H]2CN1C(=O)c1ccccc1', -0.342),
  ('NCCCCCNC(=O)[C@H]1C[C@H]2C(=O)N3CCC[C@H]3C(=O)N2[C@H]1c1cccc(OCCO)c1', 0.161),
  ('CCCCCN1CC=CC23O[C@@H]4/C=C\CCCOC(=O)C4[C@H]2C(=O)N(C(C)CO)[C@@H]3C1=O (some centres not stated)', -1.3),
  ('COC(=O)C1=CC(CCCO)=CC(c2cccs2)N(Cc2cccc(OC(F)(F)F)c2)C=C1C(=O)OC (configuration not stated)', 0.203),
  ('CC1=C2[C@@H](CCc3ccccc3)OB(O)C[C@@H]2[C@@H]2C(=O)N(C)C(=O)[C@@H]2C1', -0.19),
  ('O=C1C[C@]2(c3ccc([N+](=O)[O-])cc3)C(=O)N(C3CC3)c3cc(CO)ccc3[C@H]2N1CC12CC3CC(CC(C3)C1)C2', -0.622),
  ('[N-]=[N+]=Nc1ccccc1C[C@]1(C(=O)O)COC(c2ccc(OCCCO)cc2)=N1', -1.1),
  ('COc1cc2c(cc1O)C=[N+](Cc1sc3ccccc3c1Cl)CC2', -0.0743);
